Parameter: Kd. Scope: all listed entries.
- Assayed System: T1, armadillo (ARM) repeat domain of human β-catenin (residues 134–671) (human, UniProt P35222 134-671)
- T1 construct: two residues left at the N-terminus after thrombin cleavage of GST; β-catenin, human, armadillo repeat domain, residues 134-671; plasmid a gift from W. I. Weis; source: E. coli C41, purified (glutathione-Sepharose, thrombin cleavage on the resin, Mono-Q); not shown: GST, N-terminal, cleaved
- T1 sequence: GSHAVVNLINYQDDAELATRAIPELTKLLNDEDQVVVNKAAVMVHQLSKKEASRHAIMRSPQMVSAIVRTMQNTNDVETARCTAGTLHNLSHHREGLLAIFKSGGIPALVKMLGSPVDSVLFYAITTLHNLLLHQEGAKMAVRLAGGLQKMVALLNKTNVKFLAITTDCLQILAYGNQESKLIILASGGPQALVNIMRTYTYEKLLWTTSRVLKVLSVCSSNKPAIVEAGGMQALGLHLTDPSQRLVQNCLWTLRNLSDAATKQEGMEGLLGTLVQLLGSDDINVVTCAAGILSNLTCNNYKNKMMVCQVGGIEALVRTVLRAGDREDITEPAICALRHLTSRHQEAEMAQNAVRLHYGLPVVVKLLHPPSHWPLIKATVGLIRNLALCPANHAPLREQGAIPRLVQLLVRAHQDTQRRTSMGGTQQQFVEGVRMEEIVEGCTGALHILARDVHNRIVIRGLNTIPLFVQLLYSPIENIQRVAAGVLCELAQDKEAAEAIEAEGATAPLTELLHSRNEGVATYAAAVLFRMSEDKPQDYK
- Test Method Notes: fluorescence polarisation; fluorescence anisotropy; β-catenin titrated into 10 nM fluorescein-labelled APC construct; PBS, 1 mM DTT; 15°C; adjusted anisotropy fitted to a Hill equation
- Run Conditions: both partners purified
Where no end group is shown, it is not given here.
The answer is to be given in nM; state only the numeric part.

// below: answered binders
binder="APCabc D1486S, fluorescein-labelled at Cys 1501 (domain or fragment) SGPKQAAVNAAVQRVQVLPDASTLLHFATESTPDGFSC(fluorescein‑maleimide)SSSLSALSLDEPFIQKDVELRIMPPVQEND" quantitative_result=2050
binder="GSSGPKQAAVNAAVQRVQVLPDADTLLHFATESTPDGFSC(fluorescein‑maleimide) (domain or fragment, two residues left at the N-terminus after thrombin cleavage of GST; adenomatous polyposis coli (APC), R3 region, subdomains a (1465-1483) and b (1483-1502); source: E. coli C41, purified (glutathione-Sepharose, thrombin cleavage on the resin, differential filtration); not shown: GST, N-terminal, cleaved) [APCab, APC R3 subdomains a and b, fluorescein-labelled at Cys 1501]" quantitative_result=89.9

response.value for GSPDADTLLHFATESTPDGFSC(fluorescein‑maleimide) (domain or fragment, two residues left at the N-terminus after thrombin cleavage of GST; adenomatous polyposis coli (APC), R3 region, subdomain b, residues 1483-1502; source: E. coli C41, purified (glutathione-Sepharose, thrombin cleavage on the resin, differential filtration); not shown: GST, N-terminal, cleaved) [APCb, lysine-binding domain b of APC R3, fluorescein-labelled at Cys 1501] (field: Kd) = 246
